Test: gradient 5% acetonitrile 3 min, to 50% in 2 min, to 85% in 15 min, held 3 min, 100 µL/min
Conditions: column: Zorbax Extend-C18 2.1 x 50 mm; eluents: water / acetonitrile, 0.1% formic acid
Measure Name: RP-LC retention time (s)

Below, 4 compounds whose answers are already recorded.
O=C(COc1ccc(F)cc1)N1CCN(c2nc(CN3CCCCC3)cs2)CC1: 655
CCc1ccc(S(=O)(=O)N2c3ccccc3NC3=C(C(=O)CCC3)C2c2ccco2)cc1 (stereo not drawn): 923
COc1ccccc1C1CC(c2ccccc2NS(C)(=O)=O)=NN1C(=O)c1ccco1 (stereo not drawn): 902
CC1CCN(S(=O)(=O)c2ccc3nc(N4CCN(c5ccccc5F)CC4)ccc3c2)CC1: 1260

[I] Cc1ccc2oc(-c3noc(C(=O)NCCC4=CCCCC4)n3)c(C)c2c1
[II] O=C(NC1CCCCCCC1)C1CCN(Cc2cc3ccccc3n2Cc2cccc(Cl)c2)CC1
Exercise: Select one. Lower RP-LC retention time: I or II Give the label of your selection.
Key: II

----------
Experiment: gradient 5% acetonitrile 3 min, to 50% in 2 min, to 85% in 15 min, held 3 min, 100 µL/min
Settings: column: Zorbax Extend-C18 2.1 x 50 mm; eluents: water / acetonitrile, 0.1% formic acid
Measure Name: RP-LC retention time (s)

Below, 6 compounds whose answers are already recorded.
COc1ccc(NC(=O)N2CCC(n3c(C(F)(F)F)nc4cccnc43)CC2)c(OC)c1: 768
CCOCCCNC(=O)c1cc2sc(C)cc2n1C: 861
CCN1CCN(c2cc(C)c3cc(NC(=S)NC4CCCC4)ccc3n2)CC1: 572
O=C(Nc1cnc(N2CCCCC2)nc1)c1cccs1: 842
Cc1nnsc1C(=O)N1CCN(c2nc3ccc(OC(F)(F)F)cc3s2)CC1: 903
Cc1c(C)n(C)c2ccc(C(N)=O)cc12: 704

[A] COc1ccc(C(C)NC(=O)C2CCN(c3cnc4nccnc4c3)CC2)cc1 (stereo not given)
[B] Fc1ccccc1-c1nnc2sc(-c3ccc4ccccc4n3)nn12
Exercise: Select one. Lower RP-LC retention time: A or B Give the label of your selection.
Key: A

[a] CCOC(=O)C1CCN(Cc2nc(-c3ccc(N4CCCC4)nc3)no2)CC1
[b] O=C(NCC1CCCCC1)c1ccc2c(c1)nc1n2CCN(C2CCCCC2)C1=O
Exercise: Pick one: a or b . Which has the bigger RP-LC retention time number? Give the label of your selection.
Key: b
(b: 872 s, a: 572 s)

----------
Test: gradient 5% acetonitrile 3 min, to 50% in 2 min, to 85% in 15 min, held 3 min, 100 µL/min
Settings: column: Zorbax Extend-C18 2.1 x 50 mm; eluents: water / acetonitrile, 0.1% formic acid
Measure Name: RP-LC retention time (s)

Below, 6 compounds whose answers are already recorded.
CCCNC(=O)C1CCCN(c2ccc(SCC(=O)Nc3ccc(OC)c(Cl)c3)nn2)C1 (centres undefined): 688
COc1cc2nc(C(=O)N3CCCCC3)cc(Nc3ccc(Br)c(C)c3)c2cc1OC: 779
CCCN(CC1CCOC1)C(=O)Nc1ccc(Cl)cc1 (centres undefined): 843
COc1cc(C(=O)N2CCCN(c3cc(-c4ccc(Br)cc4)[nH]n3)CC2)cc(OC)c1OC: 768
O=C(CN1C(=O)c2ccccc2C1=O)Nc1nnc(-c2ccc3c(c2)CCCC3)o1: 856
COC(=O)C(Cc1c[nH]c2ccccc12)NC(=O)c1ccc(Br)cc1 (centres undefined): 931

[A] CN(C)[C@@H]1CN(Cc2cccc(C#N)c2)C[C@H]1CO
[B] O=c1c2scc(-c3ccc(F)cc3)c2ncn1Cc1cc(=O)n2ccccc2n1
Exercise: Select one. Lower RP-LC retention time: A or B Give the label of your selection.
Key: A
(A: 518 s, B: 810 s)

----------
Assay: gradient 5% acetonitrile 3 min, to 50% in 2 min, to 85% in 15 min, held 3 min, 100 µL/min
Settings: column: Zorbax Extend-C18 2.1 x 50 mm; eluents: water / acetonitrile, 0.1% formic acid
Measure Name: RP-LC retention time (s)

Below, 6 compounds whose answers are already recorded.
CCc1ccc(-c2cn3ccn(-c4ccc(F)cc4)c(=O)c3n2)cc1: 900
COc1ccc(NC(=O)C2CCN(C(=O)C3Sc4ccccc4NC3=O)CC2)c(OC)c1 (centres undefined): 754
COCCN1[C@@H]2CCN(C(=O)Nc3ccccc3F)C[C@@]2(C(=O)N2CCOCC2)CCS1(=O)=O: 676
O=C(Cc1cccc(Cl)c1)N1[C@H]2CC[C@@H]1c1cnc(-c3ccccc3)nc1C2: 990
COC(=O)c1c(-c2ccccc2)csc1NC(=O)c1ccnn1C: 1110
Nc1nc(Nc2ccccc2Cl)nc2ccccc12: 615

[P] COc1ccc2c(c1)C=C(C(=O)NCCc1c[nH]c3ccc(OC)cc13)CO2
[Q] O=S(=O)(c1ccc(Cl)cc1)N1CCC(c2noc(-c3ccccc3)n2)CC1
Exercise: Pick one: P or Q . Which has the bigger RP-LC retention time number? Give the label of your selection.
Key: Q
(Q: 1170 s, P: 800 s)

----------
Assay: gradient 5% acetonitrile 3 min, to 50% in 2 min, to 85% in 15 min, held 3 min, 100 µL/min
Settings: column: Zorbax Extend-C18 2.1 x 50 mm; eluents: water / acetonitrile, 0.1% formic acid
Measure Name: RP-LC retention time (s)

Below, 5 compounds whose answers are already recorded.
Cc1ccccc1-c1nc(-c2ccc(-n3cccn3)nc2)no1: 1310
O=C(c1ccc(Cl)cc1Cl)N1CCN(c2cc(-c3ccccc3)[nH]n2)CC1: 936
Cc1ccc(NC(=O)N2CCCC2c2cc(C)no2)c(Cl)c1 (centres undefined): 880
CCOC(=O)c1ccc2nc(C(F)(F)F)nc(N3CCc4ccccc4C3)c2c1: 1200
Cc1cc(C)c2[nH]c3c(c(=O)c2c1)CN(CC(=O)Nc1ccc2c(c1)OCCO2)CC3: 604

[1] COc1ccc2c(c1)CCc1sc(NC(=O)c3ccc(Br)cc3)nc1-2
[2] CC1(C(=O)NCc2ccc3c(c2)OCO3)CCN(C(=O)Nc2ccccc2C(F)(F)F)CC1
Exercise: Pick one: 1 or 2 . Which has the bigger RP-LC retention time number? Give the label of your selection.
Key: 1
(1: 1190 s, 2: 812 s)

----------
Experiment: gradient 5% acetonitrile 3 min, to 50% in 2 min, to 85% in 15 min, held 3 min, 100 µL/min
Settings: column: Zorbax Extend-C18 2.1 x 50 mm; eluents: water / acetonitrile, 0.1% formic acid
Measure Name: RP-LC retention time (s)

Below, 5 molecules whose answers are already recorded.
COC(=O)c1ncn2c1C(=O)N(c1cccc(C)c1C)C(C)(C(=O)NCc1ccccc1)C2 (centres undefined): 708
CCOc1c(Br)cc(C(=O)Nc2ccc(C(=O)O)cc2)cc1C(=O)c1ccc(C)cc1: 1130
CCCn1c(C)cnc1C1CN(C(=O)c2cccs2)C1: 586
O=C(c1csc(-c2ccc(N3CCSCC3)nc2)n1)N1CCC2(CC1)OCCO2: 822
O=C(NCc1cc(F)cc(F)c1)C1CCN(c2ncnc3c2oc2ccccc23)CC1: 752

[a] O=C(NCc1ccc(Br)cc1)c1ccc(-c2cncnc2)nc1
[b] CCCNC(=O)N(C1CCOCC1)C1CCN(C(=O)c2nn(C)c3ccccc23)CC1
Exercise: Pick one: a or b . Which has the bigger RP-LC retention time number? Give the label of your selection.
Key: b

[P] Cc1noc(/C=C\c2ccc(S(=O)(=O)N3CCN(C)CC3)cc2)c1NC(=O)C1CC1
[Q] Cc1cccc(-c2noc(C3CCCN3S(=O)(=O)c3c(C)cc(C)cc3C)n2)c1 (centres undefined)
Exercise: Select one. Lower RP-LC retention time: P or Q Give the label of your selection.
Key: P

----------
Assay: gradient 5% acetonitrile 3 min, to 50% in 2 min, to 85% in 15 min, held 3 min, 100 µL/min
Conditions: column: Zorbax Extend-C18 2.1 x 50 mm; eluents: water / acetonitrile, 0.1% formic acid
Measure Name: RP-LC retention time (s)

CCOc1ccc2nc(N3CCCC(C(=O)NCCc4ccc(S(N)(=O)=O)cc4)C3)sc2c1 (stereo not given): 730
Cc1noc(-c2cc(=O)n(CC(=O)Nc3cccc(C#N)c3)c3ccccc23)n1: 831
C=CCn1nc2c(C)c(C)nc(-c3cccnc3)n2c1=O: 631
Cc1cc(-c2nnc(-c3ccccc3)o2)c(C)n1CC(=O)Nc1cccc(F)c1: 938
Cc1ccc(-c2nc3ccccn3c2Nc2ccc3c(c2)OCCO3)cc1: 690
CCc1nc2cc(CNC(=O)Cc3ccccc3C)ccc2n1C: 618
O=C(NC1CCCCC1)C1CCCN(c2ccc3cc(S(=O)(=O)N4CCCCC4)ccc3n2)C1 (stereo not given): 832
CC(=O)c1cccc(NC(=O)Cn2cc3c(n2)CCCCC3)c1: 821
CCCN(C(=O)c1ccc(C)cc1)c1nc(-c2ccccc2)cs1: 809
COc1ccc(OC)c(C(O)CN2CCN(c3cc(C)ccc3C)CC2)c1 (stereo not given): 758

meta.source: the METLIN SMRT retention time set (Domingo-Almenara et al. 2019)
